target: T1, human GPVI-1B extracellular domain fused at its C-terminus to human IgG1 Fc (GPVI-Fc) (human); assay: ELISA, coated GPVI-Fc, Fab titrated
T1 construct: Low frequency haplotype 'b'; also called hGPVI-lb; hGPVI-1b
T1 sequence (chain, as listed by the source limits assumed): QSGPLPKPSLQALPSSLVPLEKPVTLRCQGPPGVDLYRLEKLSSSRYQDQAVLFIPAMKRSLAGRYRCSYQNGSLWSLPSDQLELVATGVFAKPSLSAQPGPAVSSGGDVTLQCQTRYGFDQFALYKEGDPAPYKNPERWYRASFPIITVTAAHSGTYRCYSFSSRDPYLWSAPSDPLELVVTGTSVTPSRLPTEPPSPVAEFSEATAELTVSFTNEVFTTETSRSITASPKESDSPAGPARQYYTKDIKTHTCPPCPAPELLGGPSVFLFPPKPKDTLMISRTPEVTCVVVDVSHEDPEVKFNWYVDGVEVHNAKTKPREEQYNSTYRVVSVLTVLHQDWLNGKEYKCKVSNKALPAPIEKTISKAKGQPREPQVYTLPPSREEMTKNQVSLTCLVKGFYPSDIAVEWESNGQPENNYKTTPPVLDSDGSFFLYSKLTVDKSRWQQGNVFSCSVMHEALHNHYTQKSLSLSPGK
Observed property: EC50

[
  {
    "Binder": "Fab #3 comprising a modified heavy chain constant region (Fab, V domains shown, Human Fab from the Ylanthia library; produced in HKB11 cells; also called Fab #3 mod; HC) VH: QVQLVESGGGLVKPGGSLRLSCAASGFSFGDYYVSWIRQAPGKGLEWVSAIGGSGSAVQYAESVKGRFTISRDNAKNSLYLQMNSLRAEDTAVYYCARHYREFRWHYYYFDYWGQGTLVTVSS VL: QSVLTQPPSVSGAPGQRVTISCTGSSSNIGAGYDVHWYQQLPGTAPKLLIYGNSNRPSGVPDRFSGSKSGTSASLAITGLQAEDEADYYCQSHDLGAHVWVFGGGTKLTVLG",
    "Data value": "0.39 nM"
  },
  {
    "Binder": "Fab #2 comprising a modified heavy chain constant region (Fab, V domains shown, Human Fab from the Ylanthia library; produced in HKB11 cells; also called Fab #2 mod; HC) VH: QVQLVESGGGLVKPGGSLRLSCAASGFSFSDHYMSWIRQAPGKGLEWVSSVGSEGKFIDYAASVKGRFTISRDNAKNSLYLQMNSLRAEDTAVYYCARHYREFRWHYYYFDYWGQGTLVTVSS VL: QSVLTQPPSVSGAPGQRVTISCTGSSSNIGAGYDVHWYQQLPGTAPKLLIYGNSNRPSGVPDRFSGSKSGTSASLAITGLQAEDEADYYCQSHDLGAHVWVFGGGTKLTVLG",
    "Data value": "0.45 nM"
  },
  {
    "Binder": "Fab #4 comprising a modified heavy chain constant region (Fab, V domains shown, Human Fab from the Ylanthia library; produced in HKB11 cells; also called Fab #4 mod; HC) VH: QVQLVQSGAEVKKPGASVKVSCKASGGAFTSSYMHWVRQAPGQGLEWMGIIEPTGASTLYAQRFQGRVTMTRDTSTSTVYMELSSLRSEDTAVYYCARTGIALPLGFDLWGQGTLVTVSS VL: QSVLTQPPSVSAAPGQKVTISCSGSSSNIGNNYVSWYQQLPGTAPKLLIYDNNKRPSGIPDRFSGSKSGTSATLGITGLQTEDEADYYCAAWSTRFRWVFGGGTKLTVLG",
    "Data value": "0.48 nM"
  }
]

Sourced from patent US20210214435A1
